folding stability dG values for the variants below.
B1: HEEH_KT_rd6_0790 (parent)
chain: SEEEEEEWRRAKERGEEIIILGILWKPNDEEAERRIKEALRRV

Variants of: B1
protocol notes: folding stability dG (cDNA display proteolysis); higher = more stable
assay context: PBS, room temperature
recorded metric: folding stability dG (kcal/mol)

SEEEEEEWRRAKERGEEIIILGILWKPNDEEAERRIKEALRNV [R42N] | 1.84
SEEDEEEWRRAKERGEEIIILGILWKPNDEEAERRIKEALRRV [E4D] | 2.17
SEEEEEEWRRAKERGEEIIILGILWKPNDEEAERRIPEALRRV [K37P] | 0.399
SEEEEEEWRRAKERGEEIIIEGILWKPNDEEAERRIKEALRRV [L21E] | 1.28
SEEEEEEWRNAKERGEEIIILGILWKPNDEEAERRIKEALRRV [R10N] | 1.69
SEEEEEEWRRGKERGEEIIILGILWKPNDEEAERRIKEALRRV [A11G] | 1.22
SEEEEEEWRRAKERGEEIIILGILWKPNDEEAERRIKRALRRV [E38R] | 1.52
SEEEEEEWRRAKEDGEEIIILGILWKPNDEEAERRIKEALRRV [R14D] | 1.49
LEEEEEEWRRAKERGEEIIILGILWKPNDEEAERRIKEALRRV [S1L] | 2.55
SEEEEEEWRRAKERGEEIIILGILWKPGDEEAERRIKEALRRV [N28G] | 2.81
SEEEEEEWRRAKERGEEIIILGILWKPNDEEAERRIKEALRVV [R42V] | 1.95
